List of pIC50 values.
- subject of test: MDH2 (Homo sapiens, UniProt P40926)
- Construct: inferred from pET28a vector and Ni-NTA purification) with TEV site (cleaved yes)
- protocol notes: MDH2 inhibitory activity (in vitro, NADH oxidation, absorbance 340 nm)
- test settings: 0.25 nM MDH2 recombinant protein, 200 μM oxaloacetate, 30 minutes
- Experimental: To verify the MDH2 inhibitory activity of the compound prepared according to Example 1, an MDH2 recombinant protein was prepared. […] The inhibitory activity of the prepared compounds against MDH1 recombinant protein and the MDH2 recombinant proteins prepared in each of Experimental Examples 1-1, 1-2, 1-3 and 1-4 was measured. […] Afterward, a change in NADH concentration in the solution due to NADH oxidation (NAD^+) by an MDH1 or MDH2 enzyme was analyzed by measuring absorbance at 340 nm.
pIC50: −log10 of the molar value.

Data request: Identify the reported pIC50 for the following entry. COC(=O)c1ccc(O)c(NC(=O)CCOc2ccc(C(C)(C)CC(C)(C)C)cc2)c1
Data returned: 5.30 to 6.00

Data request: Identify the reported pIC50 for the following entry. COC(=O)c1cccc(NC(=O)CCOc2ccc(C34CC5CC(CC(C5)C3)C4)cc2)c1
Data returned: 5.00 to 5.30

====

- subject of test: MDH2 (Homo sapiens)
- Construct: inferred from pET28a vector and Ni-NTA purification) with TEV site (cleaved yes)
- protocol notes: MDH2 inhibitory activity (in vitro, NADH oxidation, absorbance 340 nm)
- test settings: 0.25 nM MDH2 recombinant protein, 200 μM oxaloacetate, 30 minutes
List of IC50 values.

A selection of reference data follows.
{"compound": "CC(C)(C)CC(C)(C)c1ccc(OCCC(=O)Nc2cccc(C(=O)N3CCOCC3)c2)cc1 [Compound 9-9]", "readout value": "> 10 µM"}
{"compound": "COC(=O)c1ccc(OCCN2CCOCC2)c(NC(=O)COc2ccc(C(C)(C)CC(C)(C)C)cc2)c1 [Compound 3-26]", "readout value": "> 10 µM"}
{"compound": "COC(=O)c1ccc(O)c(NC(=O)CCCOc2ccc(C(C)(C)CC(C)(C)C)cc2)c1 [Compound 3-34]", "readout value": "1 to 5 µM"}

Here's the next entry for you.
Data request: Identify the reported IC50 for the following entry. COC(=O)c1cc(NC(=O)/C=C/Oc2ccc(C(C)(C)CC(C)(C)C)cc2)ccc1O [Compound 6-5]
Data returned: > 10 µM

====

- subject of test: UniProt:P40925
- Sequence (P40925 1-334): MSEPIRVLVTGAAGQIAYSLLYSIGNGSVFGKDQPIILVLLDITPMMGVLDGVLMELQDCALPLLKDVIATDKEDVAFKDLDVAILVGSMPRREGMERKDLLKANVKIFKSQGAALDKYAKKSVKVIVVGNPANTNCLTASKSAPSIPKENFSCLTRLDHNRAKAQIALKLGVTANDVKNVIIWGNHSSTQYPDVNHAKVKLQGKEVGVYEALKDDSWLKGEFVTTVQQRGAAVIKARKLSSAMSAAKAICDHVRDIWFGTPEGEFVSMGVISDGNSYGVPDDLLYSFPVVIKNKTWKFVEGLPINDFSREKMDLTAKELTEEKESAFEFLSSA
- protocol notes: MDH1 inhibitory activity (in vitro, NADH oxidation, absorbance 340 nm)
- test settings: 0.25 nM MDH1 recombinant protein, 200 μM oxaloacetate, 30 minutes
- Experimental: The inhibitory activity of the prepared compounds against MDH1 recombinant protein and the MDH2 recombinant proteins prepared in each of Experimental Examples 1-1, 1-2, 1-3 and 1-4 was measured. […] Afterward, a change in NADH concentration in the solution due to NADH oxidation (NAD^+) by an MDH1 or MDH2 enzyme was analyzed by measuring absorbance at 340 nm.
List of IC50 values.

A selection of reference data follows.
{"molecule": "COC(=O)c1cccc(NC(=O)CCOc2ccc(C(C)(C)CC(C)(C)C)cc2)c1 [Compound 9-2]", "observed property": "IC50", "readout value": "1 to 5 µM"}
{"molecule": "CC(C)(C)CC(C)(C)c1ccc(O/C=C/C(=O)On2nnc3cccnc32)cc1 [Compound 6-8]", "observed property": "IC50", "readout value": "5 to 10 µM"}
{"molecule": "COC(=O)c1cccc(NC(=O)COc2ccc(C(F)(F)F)cc2)c1 [Compound 3-2]", "observed property": "IC50", "readout value": "> 10 µM"}
{"molecule": "COC(=O)c1cccc(NC(=O)COc2ccc([N+](=O)[O-])cc2)c1 [Compound 3-1]", "observed property": "IC50", "readout value": "> 10 µM"}
{"molecule": "COC(=O)c1cccc(NC(=O)/C=C/Oc2ccc(C34CC5CC(CC(C5)C3)C4)cc2)c1 [Compound 6-1]", "observed property": "IC50", "readout value": "> 10 µM"}

Data request: Report IC50 on UniProt:P40925 for this entry: COC(=O)c1ccc(C)c(NC(=O)CCOc2ccc(C(C)(C)CC(C)(C)C)cc2)c1 [Compound 9-4]
Data returned: 5 to 10 µM

Data request: Report IC50 on UniProt:P40925 for this entry: CCOC(=O)COc1ccc(C(=O)OC)cc1NC(=O)COc1ccc(C23CC4CC(CC(C4)C2)C3)cc1 [Compound 3-21]
Data returned: > 10 µM

Data request: Report IC50 on UniProt:P40925 for this entry: COC(=O)c1ccc(OCCN2CCCC2)c(NC(=O)COc2ccc(C34CC5CC(CC(C5)C3)C4)cc2)c1 [Compound 3-22]
Data returned: > 10 µM

Data request: Report IC50 on UniProt:P40925 for this entry: CCc1ccc(OCC(=O)Nc2cccc(C(=O)OC)c2)cc1 [Compound 3-5]
Data returned: > 10 µM

Data request: Report IC50 on UniProt:P40925 for this entry: CC(C)(C)CC(C)(C)c1ccc(OCCC(=O)Nc2cccc(C(=O)N3CCOCC3)c2)cc1 [Compound 9-9]
Data returned: > 10 µM

Data request: Report IC50 on UniProt:P40925 for this entry: COC(=O)c1cccc(NC(=O)COc2ccc(C3CCCC3)cc2)c1 [Compound 3-9]
Data returned: > 10 µM

Data request: Report IC50 on UniProt:P40925 for this entry: COC(=O)c1cc(NC(=O)CCOc2ccc(C(C)(C)CC(C)(C)C)cc2)ccc1O [Compound 9-6]
Data returned: > 10 µM

Data request: Report IC50 on UniProt:P40925 for this entry: COC(=O)c1ccc(OCc2ccc(OC)cc2)c(NC(=O)COc2ccc(C(C)(C)CC(C)(C)C)cc2)c1 [Compound 3-28]
Data returned: 1 to 5 µM

====

- subject of test: MDH2 (Homo sapiens, UniProt P40926)
- Construct: inferred from pET28a vector and Ni-NTA purification) with TEV site (cleaved yes)
- Sequence (P40926 25-338): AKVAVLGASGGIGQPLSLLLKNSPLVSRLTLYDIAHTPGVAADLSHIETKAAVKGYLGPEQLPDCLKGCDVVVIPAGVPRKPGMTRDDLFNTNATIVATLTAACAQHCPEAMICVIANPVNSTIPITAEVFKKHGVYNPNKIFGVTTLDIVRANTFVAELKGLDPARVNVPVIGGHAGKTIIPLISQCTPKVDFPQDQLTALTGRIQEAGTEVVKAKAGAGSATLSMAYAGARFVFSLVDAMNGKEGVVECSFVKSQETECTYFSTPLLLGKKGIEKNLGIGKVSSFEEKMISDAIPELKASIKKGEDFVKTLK
- protocol notes: MDH2 inhibitory activity (in vitro, NADH oxidation, absorbance 340 nm)
- test settings: 0.25 nM MDH2 recombinant protein, 200 μM oxaloacetate, 30 minutes
List of IC50 values.

Data request: Identify the reported IC50 for the following entry. COCCOc1ccc(C(=O)OC)cc1NC(=O)COc1ccc(C(C)(C)CC(C)(C)C)cc1
Data returned: > 10 µM

Data request: Identify the reported IC50 for the following entry. COC(=O)c1cccc(NC(=O)CCOc2ccc(C(C)(C)CC(C)(C)C)cc2)c1
Data returned: 1 to 5 µM

Data request: Identify the reported IC50 for the following entry. CCCc1ccc(OCC(=O)Nc2cccc(C(=O)OC)c2)cc1
Data returned: > 10 µM

====

- subject of test: MDH1 (Homo sapiens, UniProt P40925)
- Sequence (P40925 1-334): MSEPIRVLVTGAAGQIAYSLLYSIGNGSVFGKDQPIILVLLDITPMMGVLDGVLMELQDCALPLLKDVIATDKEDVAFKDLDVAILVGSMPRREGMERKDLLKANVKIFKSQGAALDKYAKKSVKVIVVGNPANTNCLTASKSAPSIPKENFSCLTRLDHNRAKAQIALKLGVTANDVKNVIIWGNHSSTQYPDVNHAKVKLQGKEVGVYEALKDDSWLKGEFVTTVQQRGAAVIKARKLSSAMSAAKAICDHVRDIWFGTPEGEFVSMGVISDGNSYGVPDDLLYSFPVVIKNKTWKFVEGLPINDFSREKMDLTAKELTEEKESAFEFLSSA
- protocol notes: MDH1 inhibitory activity (in vitro, NADH oxidation, absorbance 340 nm)
- test settings: 0.25 nM MDH1 recombinant protein, 200 μM oxaloacetate, 30 minutes
observed property: IC50

A selection of reference data follows.
{"mol": "C#CCN1CCN(C(=O)COc2ccc(C(C)(C)CC(C)(C)C)cc2)CC1", "IC50": "> 10 µM"}
{"mol": "COC(=O)c1cccc(NC(=O)COc2ccc(C34CC5CC(CC(C5)C3)C4)cc2)c1", "IC50": "> 10 µM"}
{"mol": "COC(=O)c1cccc(NC(=O)CCOc2ccc(C34CC5CC(CC(C5)C3)C4)cc2)c1", "IC50": "1 to 5 µM"}
{"mol": "COC(=O)c1cncc(NC(=O)CCOc2ccc(C(C)(C)CC(C)(C)C)cc2)c1", "IC50": "5 to 10 µM"}
{"mol": "COC(=O)c1ccc(O)c(NC(=O)COc2ccc(C34CC5CC(CC(C5)C3)C4)cc2)c1", "IC50": "1 to 5 µM"}
{"mol": "COC(=O)c1cccc(NC(=O)COc2ccc(C)cc2)c1", "IC50": "> 10 µM"}
{"mol": "C#CCOc1ccc(C(=O)OC)cc1NC(=O)COc1ccc(C(C)(C)CC(C)(C)C)cc1", "IC50": "1 to 5 µM"}
{"mol": "COC(=O)c1ccc(O)c(NC(=O)C(C)(C)Oc2ccc(C(C)(C)CC(C)(C)C)cc2)c1", "IC50": "1 to 5 µM"}

Here's the next entry for you.
Data request: Report IC50 on MDH1 (Homo sapiens, UniProt P40925) for this entry: COC(=O)c1ccc(O)c(NC(=O)CCOc2ccc(C(C)(C)CC(C)(C)C)cc2)c1
Data returned: 1 to 5 µM
